For each entry below, report its inhibition value.
- tgt: D(2) dopamine receptor (Homo sapiens)
- Sequence (P14416 whole entry): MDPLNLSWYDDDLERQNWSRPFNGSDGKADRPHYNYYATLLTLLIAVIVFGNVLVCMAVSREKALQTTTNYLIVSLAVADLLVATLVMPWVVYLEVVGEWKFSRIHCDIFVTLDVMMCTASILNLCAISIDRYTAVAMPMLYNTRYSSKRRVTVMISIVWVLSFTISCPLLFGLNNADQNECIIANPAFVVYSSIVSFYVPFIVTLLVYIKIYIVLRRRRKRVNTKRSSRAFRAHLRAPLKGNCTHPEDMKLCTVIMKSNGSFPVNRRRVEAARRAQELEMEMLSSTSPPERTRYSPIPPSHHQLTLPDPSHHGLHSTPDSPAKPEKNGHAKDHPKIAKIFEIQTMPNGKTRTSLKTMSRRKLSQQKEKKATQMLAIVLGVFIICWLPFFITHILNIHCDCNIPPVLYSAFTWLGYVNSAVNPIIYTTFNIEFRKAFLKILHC
- assay-protocol: Agonist activity against human D2R expressed in HEK293 cells assessed as inhibition of forskolin-induced adenyl cyclase activity at 10 times Ki relative to quinpirole
- Assay type: functional, cell-based

Any idea what inhibition came out for `CC(C)(C)c1nc(N2CCN(CCCCNC(=O)c3cn4ccccc4n3)CC2)cc(C(F)(F)F)n1` on D(2) dopamine receptor (Homo sapiens)?
-1.9%

Consider next the compound `O=C(NCCCCN1CCN(c2ncnc3ccccc23)CC1)c1cn2ccccc2n1` in the same way.
19%

Consider next the compound `CC(C)(C)c1nc(N2CCN(CCCCNC(=O)c3nc4ccccc4[nH]3)CC2)cc(C(F)(F)F)n1` in the same way.
5.6%

Consider next the compound `O=C(NCCCCN1CCN(c2ccnc3ccccc23)CC1)c1cn2ccccc2n1` in the same way.
1.4%

Consider next the compound `COc1ccccc1N1CCN(CCCCNC(=O)c2cn3ccccc3n2)CC1` in the same way.
25%

Consider next the compound `CN(C)Cc1c(C(=O)NCCCCN2CCN(c3cc(C(F)(F)F)nc(C(C)(C)C)n3)CC2)nc2ccccn12` in the same way.
8.9%

Consider next the compound `O=C(NCCCCN1CCN(c2cccc(Cl)c2Cl)CC1)c1cn2ccccc2n1` in the same way.
45%

Consider next the compound `O=C(NCCCCN1CCN(c2cccc(C(F)(F)F)c2)CC1)c1cn2ccccc2n1` in the same way.
32%

Consider next the compound `CC(C)(C)c1nc(N2CCN(CCCCNC(=O)c3cn4cccnc4n3)CC2)cc(C(F)(F)F)n1` in the same way.
9.2%

* * *

- tgt: D(3) dopamine receptor (Homo sapiens, UniProt P35462)
- Sequence (P35462 whole entry): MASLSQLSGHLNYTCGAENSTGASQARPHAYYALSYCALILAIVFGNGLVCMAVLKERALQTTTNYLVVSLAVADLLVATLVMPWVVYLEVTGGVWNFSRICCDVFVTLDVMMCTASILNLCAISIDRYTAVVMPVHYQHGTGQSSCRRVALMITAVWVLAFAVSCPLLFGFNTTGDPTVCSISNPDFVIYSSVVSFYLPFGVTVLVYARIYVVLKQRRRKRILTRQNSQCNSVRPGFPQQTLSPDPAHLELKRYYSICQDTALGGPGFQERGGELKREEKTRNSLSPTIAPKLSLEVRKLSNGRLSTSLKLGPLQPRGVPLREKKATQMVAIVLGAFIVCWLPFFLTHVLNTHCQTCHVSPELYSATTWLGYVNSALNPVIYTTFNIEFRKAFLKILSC
- assay-protocol: Displacement of [125I]IABN from human D3R expressed in HEK293 cell membranes by gamma counting method
measured-quantity: Ki
Answer with the number, then the unit.

Consider the compound `COc1ccccc1N1CCN(CCCCNC(=O)c2cn3ccccc3n2)CC1` and give its measured Ki.
3.5 nM

Consider next the compound `CN(C)Cc1c(C(=O)NCCCCN2CCN(c3cc(C(F)(F)F)nc(C(C)(C)C)n3)CC2)[nH]c2ccccc12` in the same way.
25 nM

Consider next the compound `O=C(NCCCCN1CCN(c2cccc(C(F)(F)F)c2)CC1)c1cn2ccccc2n1` in the same way.
2.9 nM

Consider next the compound `O=C(NCCCCN1CCN(c2ccnc3ccccc23)CC1)c1cn2ccccc2n1` in the same way.
20 nM

Consider next the compound `CC(C)(C)c1cc(N2CCN(CCCCNC(=O)c3cn4ccccc4n3)CC2)cc(C(C)(C)C)c1` in the same way.
124 nM

Consider next the compound `CC(C)(C)c1nc(N2CCN(CCCCNC(=O)c3cc4ccccc4[nH]3)CC2)cc(C(F)(F)F)n1` in the same way.
11 nM

Consider next the compound `CC(C)(C)c1nc(N2CCN(CCCCNC(=O)c3nc4ccccc4[nH]3)CC2)cc(C(F)(F)F)n1` in the same way.
4.3 nM

Consider next the compound `CC(C)(C)c1nc(N2CCN(CCCCNC(=O)c3cc4cccnc4s3)CC2)cc(C(F)(F)F)n1` in the same way.
32 nM

Consider next the compound `N#Cc1cc(N2CCN(CCCCNC(=O)c3cn4ccccc4n3)CC2)cc(C(F)(F)F)c1` in the same way.
6.4 nM

* * *

- tgt: D(2) dopamine receptor (Homo sapiens)
- assay-protocol: Displacement of [125I]IABN from human D2LR expressed in HEK293 cell membranes by gamma counting method
measured-quantity: Ki (nM)
The reply should contain only the number, in nM.

Any idea what Ki came out for `COc1ccccc1N1CCN(CCCCNC(=O)c2cn3ccccc3n2)CC1` on D(2) dopamine receptor (Homo sapiens)?
19

Consider next the molecule `O=C(NCCCCN1CCN(c2ccccc2)CC1)c1cn2ccccc2n1` in the same way.
178

Consider next the molecule `N#Cc1cc(N2CCN(CCCCNC(=O)c3cn4ccccc4n3)CC2)cc(C(F)(F)F)c1` in the same way.
191

Consider next the molecule `O=C(NCCCCN1CCN(c2cccc(Cl)c2Cl)CC1)c1cn2ccccc2n1` in the same way.
12

Consider next the molecule `CN(C)Cc1c(C(=O)NCCCCN2CCN(c3cc(C(F)(F)F)nc(C(C)(C)C)n3)CC2)[nH]c2ccccc12` in the same way.
527

Consider next the molecule `Cc1nc(N2CCN(CCCCNC(=O)c3cn4ccccc4n3)CC2)cc(C(F)(F)F)n1` in the same way.
24900

Consider next the molecule `CC(C)(C)c1cc(N2CCN(CCCCNC(=O)c3cn4ccccc4n3)CC2)cc(C(C)(C)C)c1` in the same way.
1300

Consider next the molecule `CC(C)(C)c1nc(N2CCN(CCCCNC(=O)c3sc4ncccc4c3N)CC2)cc(C(F)(F)F)n1` in the same way.
481

Consider next the molecule `CC(C)(C)c1nc(N2CCN(CCCCNC(=O)c3cc4ccccc4[nH]3)CC2)cc(C(F)(F)F)n1` in the same way.
913
